Quick list: growth per entry.
# Test system: MALME-3M melanoma
# Protocol description: NCI-60 one-dose screen, 48 h (100 = growth as untreated, 0 = no growth, -100 = all killed)
# Settings: 10 µM unless noted
# Protocol: Cells are grown in 96 well plates and exposed to the test compound for 48 hours. Compounds are tested at a single concentration, which is 10^-5 M for most compounds. The reported endpoint is percent growth (GI% or GIPRCNT), where numbers from 0 - 100% represent growth inhibition, and numbers from -100% - 0 represent cell death. For example, a value of 40 represents 60% growth inhibition. A value of 0 means no net growth occurred over the course of the experiment. […]
About 83,000 compounds went through this panel and 20% of them were active in at least one assay; those are over-represented in the sample as a whole.
Quick reminder: number only, in %, skip the unit.

// known answers, use as guide
CCC(C)CC(C)C(=O)c1c(O)ccn(OC)c1=O (centres undefined) | 80.7
C[C@@H]1CC[C@H]2[C@@H](C)C(O)O[C@@H]3O[C@]4(C)CC[C@@H]1[C@]32OO4 (some centres undefined) | 28.3
COC(=O)C[C@@H]1CC=CC(=O)/C1=C(O)/C=C/c1ccccc1 | -60
CCOC(=O)C(Cc1ccccc1)(C(=O)OCC)C(Br)C(=O)c1ccccc1 (centres undefined) | 54.2
COc1cccc(/C=C2\COc3ccc(O)c(O)c3C2=O)c1OC | -75.9
Cn1c(=O)c2nc(SCc3ccccc3)n(C)c2n(C)c1=O | 143
Clc1ccc2nc(Cl)c3ccccc3c2c1 | 67.2
O=C1OCC/C1=C\OCCCO/C=C1\CCOC1=O | 95.2
O=C1NCN(c2ccccc2)C12CCN(CCCC(c1ccc(F)cc1)c1ccc(F)cc1)CC2 | 39.9
c1cnc2ccc3ncccc3c2c1 | 146

Request: Would you mind telling me what growth value was observed for CCCCCCCCCCCCCCCCN=C(CC(=O)O)C(=O)O ?
Response: 111

Request: Would you mind telling me what growth value was observed for CCS(=O)(=O)OCCCl ?
Response: 113

Request: Would you mind telling me what growth value was observed for Cc1cc2cn3c4cccnc4[nH]c(=O)c3c2cc1C ?
Response: 80.1

---

# Test system: M14 melanoma
# Protocol description: NCI-60 one-dose screen, 48 h
# Settings: 10 µM unless noted
About 83,000 compounds went through this panel and 20% of them were active in at least one assay; those are over-represented in the sample as a whole. Activity calls are given as the source filed them. How the source made its calls: active means growth percent below 10; inactive means the rest.
The reply should name one outcome from t = active, f = inactive

Check out these entries, answers already filled in.
CC1=NN(c2ccccc2Cl)C(=O)/C1=C\c1cn(S(=O)(=O)c2ccc(C)cc2)c2ccccc12 | f
COc1ccc2c(c1)/C(=C\c1c[nH]c3ccc(F)cc13)C(=O)N2 | f
O=C(c1nn(-c2ccc(Cl)cc2)cc1O)n1nc(C(F)(F)F)cc1-c1ccccc1 | f

Request: Lab log entry: COc1ccc(C2CC(c3ccc(OC)c(OC)c3)=NN2C(=O)c2cc(OC)c(OC)c(OC)c2)c(OC)c1 (centres undefined) — outcome as called in the assay?
Response: f

Request: Lab log entry: Cn1c(=O)c2c(nc(Br)n2CCC(=O)Nc2ccc(F)cc2)n(C)c1=O — outcome as called in the assay?
Response: f

Request: Lab log entry: COC1CC2CCC(C)C(O)(O2)C(=O)C(=O)N2CCCCC2C(=O)OC(C(C)CC2CCC(O)C(OC)C2)CC(=O)C(C)C=C(C)C(O)C(OC)C(=O)C(C)CC(C)/C=C/C=C/C=C1C (centres undefined) — outcome as called in the assay?
Response: f

Request: Lab log entry: O=C1CCCN1C1CCN(Cc2cc3ccccc3[nH]c2=O)c2ccccc21 (centres undefined) — outcome as called in the assay?
Response: f

Request: Lab log entry: c1csc([C@@H]2C[C@@H]3Cc4ccc5ccccc5c4N2O3)c1 — outcome as called in the assay?
Response: f

Request: Lab log entry: CCCCCCCCCCCCCCCCCC1=NC(C)(C)CN1CCO — outcome as called in the assay?
Response: t

---

# Test system: RPMI-8226 leukemia
# Protocol description: NCI-60 one-dose screen, 48 h (100 = growth as untreated, 0 = no growth, -100 = all killed)
# Settings: 10 µM unless noted
About 83,000 compounds went through this panel and 20% of them were active in at least one assay; those are over-represented in the sample as a whole.
Experimental readout: growth (%)
Quick reminder: number only, in %, skip the unit.

CCCC[N+](CCCC)=c1ccc2nc3c(C)cc(N(CC)CC)cc3sc-2c1 | -48.2
COc1cc2c(cc1OC)C1CCN3C(=O)CCC3N1CC2 (stereo unspecified) | 102
Cn1cc(-c2csc(-c3c[nH]c4ncccc34)n2)c2cc(Br)cnc21 | 61.8
C[n+]1ccc(C#N)c2ccccc21 | 94.6
Cc1ccc(C(C)C)cc1NC(=O)Nc1ccc([N+](=O)[O-])cc1 | -61.9

Request: Would you mind telling me what growth value was observed for CC1CC(C)/C(=N/NC(N)=O)C(C(O)CC2CCC(=O)NC2=O)C1 (stereo unspecified) ?
Response: 50.4

Request: Would you mind telling me what growth value was observed for C[n+]1ccc(Nc2ccc(NC(=O)c3ccc(Nc4cc[n+](C)c5ccc(N)cc45)cc3)cc2)cc1 ?
Response: 68.1

Request: Would you mind telling me what growth value was observed for C/C(=C\CCc1ccsc1)CC/C=C(\C)CCCN1CCC(CO)CC1 ?
Response: -31.1

Request: Would you mind telling me what growth value was observed for NC(=O)NN=C(C1CC1)C1CC1 ?
Response: 114

Request: Would you mind telling me what growth value was observed for COc1ccc(C2CC(c3cccc(Nc4ccnc5cc(Cl)ccc45)c3)=NN2C=O)cc1 (stereo unspecified) ?
Response: 21.5

Request: Would you mind telling me what growth value was observed for CCOC(=O)c1c(NC(=O)C2CCCCC2C(=O)O)sc2c1CCCC2 (stereo unspecified) ?
Response: 105

Request: Would you mind telling me what growth value was observed for COc1cc(/C=C/C(=O)Nc2ccc3c(c2)/C(=C\c2cccn2C)C(=O)N3)cc(OC)c1OC ?
Response: -17.8

Request: Would you mind telling me what growth value was observed for COC1CC2CCC(C)C(O)(O2)C(=O)C(=O)N2CCCCC2C(=O)OC(C(C)CC2CCC(O)C(OC)C2)CC(=O)C(C)C=C(C)C(O)C(OC)C(=O)C(C)CC(C)/C=C/C=C/C=C1C (stereo unspecified) ?
Response: 23.5

Request: Would you mind telling me what growth value was observed for O=C(CCc1nnc2sc(-c3ccc(Cl)cc3Cl)nn12)c1nc2ccccc2[nH]1 ?
Response: 2

Request: Would you mind telling me what growth value was observed for O=C(Cc1ccccn1)C(F)(F)C(F)(F)C(F)(F)F ?
Response: 100

Request: Would you mind telling me what growth value was observed for CCCn1cnc2c1c(=O)n(CCCCC(C)=O)c(=O)n2C ?
Response: 101

Request: Would you mind telling me what growth value was observed for COc1cc(C(=O)/C=C/c2cccnc2Nc2ccccc2)cc(OC)c1OC ?
Response: -40.3

Request: Would you mind telling me what growth value was observed for O=C(Nc1nc(-c2ccccc2)cs1)c1cc(O)c(O)c(O)c1 ?
Response: 17.8

Request: Would you mind telling me what growth value was observed for Cc1ccc(NC(=O)COC(=O)c2ccc(S(=O)(=O)N3CCCCCC3)cc2)cc1 ?
Response: 97.6

Request: Would you mind telling me what growth value was observed for Cc1ccc([N+](=O)[O-])cc1NC(=O)Nc1cccc(F)c1 ?
Response: 19.4

Request: Would you mind telling me what growth value was observed for C=Cc1nn2c(CCC(=O)c3nc4ccccc4[nH]3)nnc2s1 ?
Response: 110

---

# Test system: NCI-H522 lung
# Protocol description: NCI-60 one-dose screen, 48 h
# Settings: 10 µM unless noted
About 83,000 compounds went through this panel and 20% of them were active in at least one assay; those are over-represented in the sample as a whole. The source made the active and inactive calls. How the source made its calls: active means growth percent below 10; inactive means the rest.
The reply should name one outcome from active, inactive

Check out these entries, answers already filled in.
O=C(/C(=C/c1cccc([N+](=O)[O-])c1)c1ccccc1)c1ccccc1 | inactive
CN1CCN(CC(=O)Nc2nc3c(s2)Nc2cc(Cl)c(Cl)cc2NC3=O)CC1 | inactive
CCC(CCC(C)C1CCC2C3CC=C4CC(O)CCC4(C)C3CCC12C)C(C)C (stereo unspecified) (tested in a mixture with another compound) | inactive
N#Cc1ccc(NC(=O)Nc2ccc(Oc3ccc(NC(=O)Nc4ccc(C#N)cc4)cc3)cc2)cc1 | active
CC/C(=C\c1ccc(N(C)C)cc1)c1nc2ccccc2c(=O)[nH]1 | inactive

Request: Lab log entry: CCOc1nc(-c2ccccc2)cc2c(O)c(C(=O)n3nc(C)cc3C)[nH]c(=O)c12 — outcome as called in the assay?
Response: inactive

Request: Lab log entry: CCn1c2c(c3ccccc31)SC1c3cccn3CCN1C2=S (stereo unspecified) — outcome as called in the assay?
Response: inactive

Request: Lab log entry: N#Cc1c2ccccc2c2n1-c1ccccc1OC(c1ccccc1)C2=O (stereo unspecified) — outcome as called in the assay?
Response: active

Request: Lab log entry: CCCc1cc(=O)n2c(C(=O)Nc3ccccc3OC)c(C(=O)Nc3ccc(F)cc3)sc2n1 — outcome as called in the assay?
Response: inactive
